- Test system: Enterovirus 68D
- method-notes: CPE assay, RD cells
- Assay type: cell-based
- measurement-conditions: Enterovirus 68D [RD]; n = 1; read-out: Antiviral activity EC50
readout-type: EC50 (nM)
Express it in nM; write the number only.

Measured EC50, "CCC(CC)COC(=O)[C@H](C)N[P@](=O)(OC[C@H]1O[C@@](C#N)(c2ccc3c(N)ncnn23)[C@H](O)[C@@H]1O)Oc1ccccc1" : 50

----------
- Tested on: Dengue 3 virus (VN32)
- method-notes: microbe, parasite or virus in culture
- Format: cell-based
- measurement-conditions: Dengue 3 virus (VN32) [Huh-7]; n = 1; read-out: Antiviral activity EC50
readout-type: pEC50
Keep in mind that pEC50 stands for -log10 of concentration in molar terms.

pEC50 for Dengue 3 virus (VN32) with input "CCC(CC)COC(=O)[C@H](C)N[P@](=O)(OC[C@H]1O[C@@](C#N)(c2ccc3c(N)ncnn23)[C@H](O)[C@@H]1O)Oc1ccccc1" equals 6.92
